Source: ChEMBL document CHEMBL4229328

# Test system: Escherichia coli
# Assay type: functional, C3000 ATCC 15597
Documented MLC across a set of compounds
Enter your answer as a number in %; do not include the unit.

Consider the worked cases shown below.
Compound: C=CC(C)(C)O
MLC / %: 5.23
//
Compound: CCC(C)(C)O [AMYLENE HYDRATE]
MLC / %: 5.09
//
Compound: CC[Si](C)(C)O
MLC / %: 1.04
//
Compound: CC(C)(C)O
MLC / %: 13.54
//
Compound: C[Si](C)(O)c1ccccc1
MLC / %: 0.27
//
Compound: CC(C)(O)c1ccccc1
MLC / %: 0.96

Consider now this further compound.
Data point: C=C[Si](C)(C)O ; MLC = 1.23

----------
# Target entity: Sigma intracellular receptor 2 (Rattus norvegicus, UniProt Q5U3Y7)
# Sequence (Q5U3Y7 whole entry): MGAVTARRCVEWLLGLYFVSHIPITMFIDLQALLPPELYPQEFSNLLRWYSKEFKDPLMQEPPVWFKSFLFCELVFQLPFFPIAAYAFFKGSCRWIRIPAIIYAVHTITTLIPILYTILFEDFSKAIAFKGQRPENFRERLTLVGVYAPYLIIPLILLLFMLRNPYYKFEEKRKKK
# Assay overview: Displacement of [3H]-DTG from sigma-2 receptor in rat liver membranes after 180 mins by scintillation counting method
# Assay type: cell membranes, Membrane
Recorded Ki values for a group of compounds are listed next.
The response must be a number in nM with no trailing unit.

Reference set, count: 5
Sample smiles: COc1ccc(CN2CC[Si]3(CCCc4ccccc43)CC2)cc1
Ki [nM]: 460
--
Sample smiles: c1ccc(CN2CC[Si]3(CCCc4ccccc43)CC2)cc1
Ki [nM]: 243
--
Sample smiles: c1ccc(CCN2CC[Si]3(CCCc4ccccc43)CC2)cc1
Ki [nM]: 39
--
Sample smiles: COc1ccc(CN2CCC3(CCCc4ccccc43)CC2)cc1
Ki [nM]: 206
--
Sample smiles: CC(C)CCN1CC[Si]2(CCCc3ccccc32)CC1
Ki [nM]: 19

Lab note: measured Ki of c1ccc(CCN2CCC3(CCCc4ccccc43)CC2)cc1 was 34

Ki for c1ccc(CN2CCC3(CCCc4ccccc43)CC2)cc1 is 44

Per the records, this compound ( CC(C)CCN1CCC2(CCCc3ccccc32)CC1 ) has Ki equal to 5.5

----------
# Target entity: Protein Gpr81 (Rattus norvegicus, UniProt G3V906)
# Sequence (G3V906 whole entry): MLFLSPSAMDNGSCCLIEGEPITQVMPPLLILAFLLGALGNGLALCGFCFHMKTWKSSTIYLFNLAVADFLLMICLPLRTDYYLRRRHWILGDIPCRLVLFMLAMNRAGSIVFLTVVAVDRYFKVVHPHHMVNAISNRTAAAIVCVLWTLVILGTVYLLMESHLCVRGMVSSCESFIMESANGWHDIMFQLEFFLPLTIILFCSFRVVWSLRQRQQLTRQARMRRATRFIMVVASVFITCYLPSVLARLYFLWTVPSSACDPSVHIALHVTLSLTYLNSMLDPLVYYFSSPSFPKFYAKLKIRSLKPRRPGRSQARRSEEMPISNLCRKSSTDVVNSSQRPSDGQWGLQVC
# Assay overview: Agonist activity at rat GPR81 expressed in T-REx-CHO cells assessed as inhibition of forskolin-stimulated cAMP accumulation preincubated for 30 mins followed by forskolin stimulation and measured after 20 mins by TR-FRET assay
Recorded EC50, one value per entry.
In your response, put the unit directly after the numeric value.

See these solved cases before continuing.
Molecule: CCOc1cc(Cl)c(C(=O)NC(=O)Nc2nc3c(s2)C[Si](C)(c2c(OC)cccc2OC)CC3)cc1N1CCOCC1 (stereo not drawn)
Property measured: EC50
Result: 1.2 µM
--
Molecule: CCOc1cc(Cl)c(C(=O)NC(=O)Nc2nc3c(s2)C[Si](C)(c2ccc(OC)cc2)CC3)cc1N1CCOCC1 (stereo not drawn)
Property measured: EC50
Result: 1 µM

# evaluate next
What the record says about CCOc1cc(Cl)c(C(=O)NC(=O)Nc2nc3c(s2)CCCC3)cc1N1CCOCC1 : EC50 is 0.24 µM

----------
# Target entity: Sigma non-opioid intracellular receptor 1 (Cavia porcellus)
# Sequence (Q60492 whole entry): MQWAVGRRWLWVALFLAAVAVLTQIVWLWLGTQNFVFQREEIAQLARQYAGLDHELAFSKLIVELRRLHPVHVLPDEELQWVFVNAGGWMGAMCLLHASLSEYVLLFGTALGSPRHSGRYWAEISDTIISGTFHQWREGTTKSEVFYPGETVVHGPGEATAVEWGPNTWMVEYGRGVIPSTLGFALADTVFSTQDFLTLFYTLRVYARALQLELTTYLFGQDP
# Assay overview: Displacement of [3H]-(+)pentazocine from sigma-1 receptor in guinea pig brain membranes after 180 mins by scintillation counting method
Property measured: Ki
In your response, the unit should come after the numeric value.

Worked set:
Sample smiles: c1ccc(CN2CC[Si]3(CCCc4ccccc43)CC2)cc1
Property measured: Ki
Result: 1.1 nM
//
Sample smiles: c1ccc(CN2CCC3(CCCc4ccccc43)CC2)cc1
Property measured: Ki
Result: 2 nM
//
Sample smiles: c1ccc(CCN2CC[Si]3(CCCc4ccccc43)CC2)cc1
Property measured: Ki
Result: 2.9 nM
//
Sample smiles: CC(C)CCN1CCC2(CCCc3ccccc32)CC1
Property measured: Ki
Result: 1.8 nM

Ki in this record for c1ccc(CCN2CCC3(CCCc4ccccc43)CC2)cc1 : 8 nM

Record summary for COc1ccc(CN2CC[Si]3(CCCc4ccccc43)CC2)cc1 : reported Ki = 2.7 nM

Entry CC(C)CCN1CC[Si]2(CCCc3ccccc32)CC1 ; Ki = 0.3 nM

// recorded Ki for COc1ccc(CN2CCC3(CCCc4ccccc43)CC2)cc1 : 3.8 nM

----------
# Target entity: Chymotrypsinogen A (Bos taurus)
# Assay overview: Inhibition of bovine alpha-chymotrypsin using succinyl Ala-Ala-Pro-Phe-p-nitroanilide as substrate after 1 hr by Dixon plot analysis
Property measured: Ki (nM)
Give your result in nM as a bare value.

Lab book: Ki of C[C@H](C[Si](O)(O)[C@H](Cc1ccccc1)NC(=O)[C@@H]1CCCN1)C(N)=O noted as 107

----------
# Target entity: Histone deacetylase 2 (Homo sapiens, UniProt Q92769)
# Sequence (Q92769 whole entry): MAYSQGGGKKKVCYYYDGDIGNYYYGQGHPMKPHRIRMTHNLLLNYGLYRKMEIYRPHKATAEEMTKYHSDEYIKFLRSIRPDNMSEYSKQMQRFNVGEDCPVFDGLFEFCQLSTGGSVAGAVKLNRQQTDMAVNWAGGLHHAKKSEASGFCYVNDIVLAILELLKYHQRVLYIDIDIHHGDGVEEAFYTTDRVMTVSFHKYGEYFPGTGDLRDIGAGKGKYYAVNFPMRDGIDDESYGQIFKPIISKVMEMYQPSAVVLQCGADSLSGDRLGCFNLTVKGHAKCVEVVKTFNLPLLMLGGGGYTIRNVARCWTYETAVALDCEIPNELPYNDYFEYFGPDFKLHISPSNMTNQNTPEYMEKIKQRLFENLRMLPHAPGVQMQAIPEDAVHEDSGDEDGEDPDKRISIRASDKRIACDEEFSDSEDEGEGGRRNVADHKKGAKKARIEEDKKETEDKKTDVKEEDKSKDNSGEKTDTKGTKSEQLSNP
Property measured: IC50

Record summary for C[Si](O)(O)CCCCCCC(=O)Nc1ccccc1 : reported IC50 = 6.3 µM

----------
# Target entity: Sodium-dependent dopamine transporter (Homo sapiens, UniProt Q01959)
# Sequence (Q01959 whole entry): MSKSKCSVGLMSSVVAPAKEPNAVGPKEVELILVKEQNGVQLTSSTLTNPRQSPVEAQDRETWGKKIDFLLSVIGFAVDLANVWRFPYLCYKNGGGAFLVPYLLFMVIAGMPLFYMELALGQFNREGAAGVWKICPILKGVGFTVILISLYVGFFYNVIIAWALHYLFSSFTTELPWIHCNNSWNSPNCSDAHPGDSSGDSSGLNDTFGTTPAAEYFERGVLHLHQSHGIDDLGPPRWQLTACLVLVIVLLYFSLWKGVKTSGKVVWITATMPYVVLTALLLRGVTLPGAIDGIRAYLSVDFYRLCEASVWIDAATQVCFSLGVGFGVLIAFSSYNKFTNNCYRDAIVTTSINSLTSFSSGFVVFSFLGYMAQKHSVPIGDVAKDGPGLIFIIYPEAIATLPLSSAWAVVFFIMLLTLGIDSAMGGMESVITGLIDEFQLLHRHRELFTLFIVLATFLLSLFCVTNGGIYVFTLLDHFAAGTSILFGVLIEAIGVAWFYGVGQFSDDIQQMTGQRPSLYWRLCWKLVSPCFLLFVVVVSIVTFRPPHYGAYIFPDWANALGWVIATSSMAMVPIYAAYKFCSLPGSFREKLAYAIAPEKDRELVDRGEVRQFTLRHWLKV
# Assay overview: Inhibition of human DAT expressed in CHOK1 cells assessed as decrease in [3H]-dopamine reuptake after 10 mins by scintillation counting method
Property measured: IC50 (nM)
Write the number in nM without appending the unit.

Recorded IC50 (compound COc1ccc(C(CN(C)C)[Si]2(O)CCCC2)cc1 (racemic) ): 707

----------
# Target entity: Hydroxycarboxylic acid receptor 2 (Rattus norvegicus, UniProt Q80Z39)
# Sequence (Q80Z39 whole entry): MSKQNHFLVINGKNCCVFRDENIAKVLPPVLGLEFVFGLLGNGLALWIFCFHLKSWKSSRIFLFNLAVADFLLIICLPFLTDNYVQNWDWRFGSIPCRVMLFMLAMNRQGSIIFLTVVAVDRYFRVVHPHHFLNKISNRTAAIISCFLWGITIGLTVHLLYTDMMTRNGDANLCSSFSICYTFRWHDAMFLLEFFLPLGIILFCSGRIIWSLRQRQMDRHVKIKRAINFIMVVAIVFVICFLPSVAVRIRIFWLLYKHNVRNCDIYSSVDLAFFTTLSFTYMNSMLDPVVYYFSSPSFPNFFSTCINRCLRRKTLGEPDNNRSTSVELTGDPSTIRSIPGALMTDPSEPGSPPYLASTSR
# Assay overview: Agonist activity at rat GPR109A expressed in T-REx-CHO cells assessed as inhibition of forskolin-stimulated cAMP accumulation preincubated for 30 mins followed by forskolin stimulation and measured after 20 mins by TR-FRET assay
Property measured: EC50 (nM)
Supply the numeric figure in nM, leaving out any unit text.

Use the examples below as a reference point.
Molecule: CCOc1cc(Cl)c(C(=O)NC(=O)Nc2nc3c(s2)CCCC3)cc1N1CCOCC1
EC50 / nM: 2100
--
Molecule: CCOc1cc(Cl)c(C(=O)NC(=O)Nc2nc3c(s2)C[Si](C)(c2c(OC)cccc2OC)CC3)cc1N1CCOCC1 (stereo not drawn)
EC50 / nM: 1300

Kindly review the next molecule as well.
Entry CCOc1cc(Cl)c(C(=O)NC(=O)Nc2nc3c(s2)C[Si](C)(c2ccc(OC)cc2)CC3)cc1N1CCOCC1 (stereo not drawn) , EC50 reported as 1200

----------
# Target entity: Histone deacetylase 1 (Homo sapiens, UniProt Q13547)
# Sequence (Q13547 whole entry): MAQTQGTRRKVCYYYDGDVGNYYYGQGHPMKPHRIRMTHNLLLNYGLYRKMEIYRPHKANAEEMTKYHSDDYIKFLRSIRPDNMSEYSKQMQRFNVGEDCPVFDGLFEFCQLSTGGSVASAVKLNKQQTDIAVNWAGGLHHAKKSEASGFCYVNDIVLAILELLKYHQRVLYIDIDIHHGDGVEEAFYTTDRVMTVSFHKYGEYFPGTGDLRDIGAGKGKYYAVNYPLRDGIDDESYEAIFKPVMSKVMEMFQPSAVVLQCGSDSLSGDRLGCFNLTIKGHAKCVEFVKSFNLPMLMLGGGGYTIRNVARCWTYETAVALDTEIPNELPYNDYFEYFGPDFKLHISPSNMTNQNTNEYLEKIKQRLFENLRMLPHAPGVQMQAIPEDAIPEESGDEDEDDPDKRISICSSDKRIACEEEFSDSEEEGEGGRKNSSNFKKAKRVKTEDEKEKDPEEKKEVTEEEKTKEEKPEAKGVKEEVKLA
# Assay overview: Inhibition of human recombinant HDAC1 using Ac-Leu-Gly-Lys(Ac)-AMC as substrate preincubated for 30 mins followed by substrate addition and measured after 15 to 30 mins
Property measured: IC50 (nM)
Please give a number only; it is taken to be in nM.

IC50 reported for this compound C[Si](O)(O)CCCCCCC(=O)Nc1ccccc1 : 2700
